The values you see were collected from patent US6517836B1.

Measured pIC50 values are reported for all entries that follow.
Test system: Chinese hamster fibroblast NR− line (T78-1), V79/4 transfected with an empty shuttle vector
protocol text: Cytotoxicity, 18 h drug exposure, V79 NR− line (T78-1)
Format: cell-based
measurement setup: T78-1 cells, 18 h drug exposure; read-out: V-79 NR− IC50
The value called pIC50 is obtained by taking minus log10 of the concentration in mol/L.

CN(CCN1CCOCC1)C(=O)c1cc(N2CC2)c([N+](=O)[O-])cc1[N+](=O)[O-] [Compound 4] | 3.44
O=C(NCCN1CCOCC1)c1cc(N2CC2)c([N+](=O)[O-])cc1[N+](=O)[O-] [Compound 3] | 3.24
O=C(NCCCCN1CCOCC1)c1cc(N2CC2)c([N+](=O)[O-])cc1[N+](=O)[O-] [Compound 6] | 3.63

Now for another entry.
Which pIC50 value belongs to O=C(NCCCN1CCOCC1)c1cc(N2CC2)c([N+](=O)[O-])cc1[N+](=O)[O-] [Compound 5] ?
3.59

* * *

Tested on: Chinese hamster fibroblast NR+ line (T79-A3), NR transfectant
protocol text: Cytotoxicity, 18 h drug exposure, V79 NR+ line (T79-A3)
Format: cell-based
measurement setup: Cricetulus griseus, Fibroblast; T79-A3 cells, 18 h drug exposure; read-out: V-79 NR+ IC50
assay endpoint: IC50
Phrase the answer as number then unit, nothing more needed.

I would be grateful if you could share the reported IC50 for CS(=O)(=O)c1cc([N+](=O)[O-])c(C(N)=O)cc1N1CC1 [Compound 12] .
40 µM

How about this molecule: NC(=O)c1cc(N2CC2)ccc1[N+](=O)[O-] [Compound 11, 5-(aziridin-1-yl)-2-nitrobenzamide]
81 µM

// next record NC(=O)c1cc([N+](=O)[O-])cc([N+](=O)[O-])c1N1CC1 [Compound 14, 2-(aziridin-1-yl)-3,5-dinitrobenzamide]
1.2 µM

Same for CS(=O)(=O)c1cc([N+](=O)[O-])c(N2CC2)cc1C(=O)NCC(O)CO (stereo not shown) [Compound 10]
8.8 µM

* * *

System: Chinese hamster fibroblast NR− line (T78-1), V79/4 transfected with an empty shuttle vector
protocol text: Cytotoxicity, 18 h drug exposure, V79 NR− line (T78-1)
Format: cell-based
measurement setup: Cricetulus griseus; T78-1 cells, 18 h drug exposure; read-out: V-79 NR− IC50
Quick reference for IC50 among some molecules
Number only, in µM; omit the unit.

NC(=O)c1ccc([N+](=O)[O-])c(N2CC2)c1 [Compound 9, 3-(aziridin-1-yl)-4-nitrobenzamide] | 108

Alright, here's another molecule for you.
Query (molecule): NC(=O)c1cc(N2CC2)ccc1[N+](=O)[O-] [Compound 11, 5-(aziridin-1-yl)-2-nitrobenzamide] ; field requested: IC50
121

* * *

Test system: human colon carcinoma NR+ line (WC14 10), NR transfectant
protocol text: Cytotoxicity, 18 h drug exposure, WiDr NR+ line (WC14 10)
Type: cell-based
measurement setup: Homo sapiens, WiDr; WC14 10 cells, 18 h drug exposure; read-out: WiDr NR+ IC50
The following molecules are shown together with reported IC50 values.
Write the numeric value and append its unit.

CS(=O)(=O)c1cc([N+](=O)[O-])c(N2CC2)cc1C(=O)NCC(O)CO (stereo not shown) | 26 µM
NC(=O)c1cc(N2CC2)ccc1[N+](=O)[O-] [Compound 11, 5-(aziridin-1-yl)-2-nitrobenzamide] | 89 µM
O=C(NCC(O)CO)c1cc(N2CC2)c([N+](=O)[O-])cc1[N+](=O)[O-] (stereo not shown) | 3.7 µM

Give human colon carcinoma NR+ line (WC14 10), NR transfectant IC50 for O=C(NCC(O)CO)c1cc([N+](=O)[O-])cc([N+](=O)[O-])c1N1CC1 (stereo not shown)
12 µM

* * *

System: human colon carcinoma NR+ line (WC14 10), NR transfectant
protocol text: Cytotoxicity, 18 h drug exposure, WiDr NR+ line (WC14 10)
Format: cell-based
measurement setup: WIDR vs WC14 10; inter-experiment average
Listing: WiDr ratio of IC50s of selected compounds
API doc: respond with a numeric literal and nothing else, no unit.

Solved cases below.
CN(CCN1CCOCC1)C(=O)c1cc(N2CC2)c([N+](=O)[O-])cc1[N+](=O)[O-] | 21
O=C(NCCN1CCOCC1)c1cc([N+](=O)[O-])cc([N+](=O)[O-])c1N1CC1 | 32
O=C(NCCCCN1CCOCC1)c1cc(N2CC2)c([N+](=O)[O-])cc1[N+](=O)[O-] | 93

Query: WiDr ratio of IC50s; subject: `O=C(NCCCN1CCOCC1)c1cc(N2CC2)c([N+](=O)[O-])cc1[N+](=O)[O-]`
120

* * *

Property: IC50; scope: individual compounds
System: human colon carcinoma NR+ line (WC14 10), NR transfectant
protocol text: Cytotoxicity, 18 h drug exposure, WiDr NR+ line (WC14 10)
Assay type: cell-based
measurement setup: Homo sapiens, WiDr; WC14 10 cells, 18 h drug exposure; read-out: WiDr NR+ IC50
Field format: number, assumed µM, no unit text.

CS(=O)(=O)c1cc([N+](=O)[O-])c(C(N)=O)cc1N1CC1 [Compound 12] | 22

Could you share which IC50 value was measured for O=C(NCCn1ccnc1)c1cc(N2CC2)c([N+](=O)[O-])cc1[N+](=O)[O-] [Compound 7] ?
1

* * *

Each record here notes measured pIC50.
Test system: EMT6 mouse mammary carcinoma line
protocol text: Cytotoxicity, 18 h drug exposure, EMT6 NR− line
Assay type: cell-based
measurement setup: Mus musculus; EMT6 cells, 18 h drug exposure; read-out: EMT6 NR− IC50
Please keep in mind that pIC50 is minus log10 of the molar concentration; only the number is needed.

CS(=O)(=O)c1cc([N+](=O)[O-])c(N2CC2)cc1C(=O)NCC(O)CO (centres unmarked) [Compound 10] | 3.34
NC(=O)c1cc([N+](=O)[O-])cc([N+](=O)[O-])c1N1CC1 [Compound 14, 2-(aziridin-1-yl)-3,5-dinitrobenzamide] | 3.11
NC(=O)c1c([N+](=O)[O-])ccc(N2CC2)c1[N+](=O)[O-] [Compound 13, 3-(aziridin-1-yl)-2,6-dinitrobenzamide] | 3.54

Turning now to a further record.
Fill blank: measured pIC50 of the molecule O=C(NCC(O)CO)c1cc(N2CC2)c([N+](=O)[O-])cc1[N+](=O)[O-] (centres unmarked) [Compound 2] is ____.
4.05

* * *

WiDr ratio of IC50s values by entry
System: human colon carcinoma NR+ line (WC14 10), NR transfectant
protocol text: Cytotoxicity, 18 h drug exposure, WiDr NR+ line (WC14 10)
Format: cell-based
measurement setup: WIDR vs WC14 10; inter-experiment average

Some compounds with known WiDr ratio of IC50s results, for comparison:
NC(=O)c1ccc([N+](=O)[O-])c(N2CC2)c1 [Compound 9, 3-(aziridin-1-yl)-4-nitrobenzamide] | 1.6
O=C(NCC(O)CO)c1cc([N+](=O)[O-])cc([N+](=O)[O-])c1N1CC1 (stereo not drawn) [Compound 17] | 71
O=C(NCCN1CCOCC1)c1cc(N2CC2)c([N+](=O)[O-])cc1[N+](=O)[O-] [Compound 3] | 183
CS(=O)(=O)c1cc([N+](=O)[O-])c(N2CC2)cc1C(=O)NCC(O)CO (stereo not drawn) [Compound 10] | 33
NC(=O)c1cc([N+](=O)[O-])cc([N+](=O)[O-])c1N1CC1 [Compound 14, 2-(aziridin-1-yl)-3,5-dinitrobenzamide] | 85

Fill in the blank: the reported WiDr ratio of IC50s of NC(=O)c1cc(N2CC2)ccc1[N+](=O)[O-] [Compound 11, 5-(aziridin-1-yl)-2-nitrobenzamide] is ____.
1.4

How about this compound: O=C(NCCn1ccnc1)c1cc(N2CC2)c([N+](=O)[O-])cc1[N+](=O)[O-] [Compound 7]
48

Now the same for NC(=O)c1cc(N2CC2)c([N+](=O)[O-])cc1[N+](=O)[O-] [CB1954, 5-(aziridin-1-yl)-2,4-dinitrobenzamide, reference compound]
51

How about this compound: CS(=O)(=O)c1cc([N+](=O)[O-])c(C(N)=O)cc1N1CC1 [Compound 12]
10

How about COC(=O)CCNC(=O)c1cc(N2CC2)c([N+](=O)[O-])cc1[N+](=O)[O-] [Compound 8] ?
51

Also check NC(=O)c1c([N+](=O)[O-])ccc(N2CC2)c1[N+](=O)[O-] [Compound 13, 3-(aziridin-1-yl)-2,6-dinitrobenzamide]
5.9

Next: O=C(NCC(O)CO)c1cc(N2CC2)c([N+](=O)[O-])cc1[N+](=O)[O-] (stereo not drawn) [Compound 2]
49

* * *

System: EN2A, NR-transformed counterpart of EMT6
protocol text: Cytotoxicity, 18 h drug exposure, EMT6 NR+ line (EN2A)
Format: cell-based, mouse
measurement setup: EN2A cells, 18 h drug exposure; read-out: EMT6 NR+ IC50
assay endpoint: IC50

Could you tell me which IC50 is on file for `O=C(NCCN1CCOCC1)c1cc(N2CC2)c([N+](=O)[O-])cc1[N+](=O)[O-]` ?
61 nM
